molecular target: Protein arginine N-methyltransferase 1 (Homo sapiens) (UniProt Q99873); test: human PRMT1 activity-probe blockers, retest – biochemical, fluorescence polarization, triplicate, confirmation (AID 687036); conditions: recombinant His-PRMT1, activity-based probe fluorescence polarization; at 2.79 µM
Sequence (Q99873 whole entry, looked up): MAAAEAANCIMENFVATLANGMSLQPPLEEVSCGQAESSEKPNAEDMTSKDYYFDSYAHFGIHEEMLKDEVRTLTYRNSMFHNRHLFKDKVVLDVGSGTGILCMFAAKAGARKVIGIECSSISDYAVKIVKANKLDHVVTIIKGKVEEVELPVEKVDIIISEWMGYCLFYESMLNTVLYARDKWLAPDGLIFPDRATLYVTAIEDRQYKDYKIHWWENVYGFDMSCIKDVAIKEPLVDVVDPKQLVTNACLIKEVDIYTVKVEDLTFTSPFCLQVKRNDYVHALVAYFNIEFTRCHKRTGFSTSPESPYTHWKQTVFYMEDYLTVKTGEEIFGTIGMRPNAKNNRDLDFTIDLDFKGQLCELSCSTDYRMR
Out of some 3,300 compounds screened, about 1,400 (42%) were called active.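 The calls were made as follows: active = mean inhibition across replicates above the hit cutoff derived for the earlier primary screen (cut at about 22% in these data); inactive = the rest.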 The set was probably picked from earlier hits. Shown is part of a subset that was picked to be rich in actives.
Pick from active, inactive when you respond.

# Compound, Tested system, Label
records = [
    ("Cc1cc(/C=C2/C(=O)NC(=O)N(Cc3ccco3)C2=O)c(C)n1-c1ccc(C(=O)O)cc1", "Protein arginine N-methyltransferase 1 (Homo sapiens) (UniProt Q99873)", "inactive"),
    ("CCOC(=O)CC(SP1(=S)OCC2(CCCCO2)C(C2CCCCO2)O1)C(=O)OCC (stereo not given)", "Protein arginine N-methyltransferase 1 (Homo sapiens) (UniProt Q99873)", "active"),
]

Test call, this compound: O=C1N=c2ccccc2=C/C1=C\c1c(O)[nH]c(=S)[nH]c1=O
active

For COc1ccc(N2C(=O)/C(=C/c3ccco3)C(=O)NC2=S)cc1 then?
active

Now the compound O=C1NC(=O)N(Cc2ccco2)C(=O)/C1=C\c1ccc(-c2ccc(F)cc2)o1
active

Numbers sourced from PubChem BioAssay AID687036.
